- study.system: 1-phosphatidylinositol 4,5-bisphosphate phosphodiesterase gamma-2 (Homo sapiens) (UniProt P16885)
- Sequence (whole entry): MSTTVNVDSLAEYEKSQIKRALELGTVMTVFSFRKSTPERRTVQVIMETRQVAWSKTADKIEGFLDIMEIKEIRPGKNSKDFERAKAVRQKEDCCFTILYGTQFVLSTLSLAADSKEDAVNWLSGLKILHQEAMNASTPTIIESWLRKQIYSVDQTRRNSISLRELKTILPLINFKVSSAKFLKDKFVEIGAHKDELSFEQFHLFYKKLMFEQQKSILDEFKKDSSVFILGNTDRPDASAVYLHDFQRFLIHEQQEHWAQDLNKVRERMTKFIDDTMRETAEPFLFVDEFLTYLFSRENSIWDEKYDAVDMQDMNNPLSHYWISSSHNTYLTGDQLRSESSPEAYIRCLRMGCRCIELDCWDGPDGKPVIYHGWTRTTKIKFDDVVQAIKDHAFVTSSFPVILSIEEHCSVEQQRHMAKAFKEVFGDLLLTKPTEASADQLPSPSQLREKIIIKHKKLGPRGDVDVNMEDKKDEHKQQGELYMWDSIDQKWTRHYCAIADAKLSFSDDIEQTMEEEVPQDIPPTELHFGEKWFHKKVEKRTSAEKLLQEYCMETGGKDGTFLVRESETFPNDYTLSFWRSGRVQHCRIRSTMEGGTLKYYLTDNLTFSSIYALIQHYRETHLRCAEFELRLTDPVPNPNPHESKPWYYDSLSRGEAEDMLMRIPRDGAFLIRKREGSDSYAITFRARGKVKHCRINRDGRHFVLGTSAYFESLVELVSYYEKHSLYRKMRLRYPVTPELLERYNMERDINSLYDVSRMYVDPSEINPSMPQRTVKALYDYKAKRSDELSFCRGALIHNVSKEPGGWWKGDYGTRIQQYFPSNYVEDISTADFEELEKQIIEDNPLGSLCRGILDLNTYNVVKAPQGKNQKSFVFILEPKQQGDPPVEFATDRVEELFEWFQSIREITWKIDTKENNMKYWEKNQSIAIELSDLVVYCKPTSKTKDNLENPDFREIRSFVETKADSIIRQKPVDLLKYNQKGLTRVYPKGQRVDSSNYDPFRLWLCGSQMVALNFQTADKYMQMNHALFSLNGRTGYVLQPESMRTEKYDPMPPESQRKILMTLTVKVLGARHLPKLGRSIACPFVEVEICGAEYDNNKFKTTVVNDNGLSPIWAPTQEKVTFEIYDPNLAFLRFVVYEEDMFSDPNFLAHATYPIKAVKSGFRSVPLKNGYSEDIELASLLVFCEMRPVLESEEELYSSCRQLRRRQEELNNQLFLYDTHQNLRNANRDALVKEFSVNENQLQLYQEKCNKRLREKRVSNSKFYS
- test.name: Inhibition of phospholipase C gamma2 in human A431 cells assessed as reduction of calcium release after 45 mins by FLIPR assay
- Assay type: cell-based
- experimental.parameters: A-431
Active and inactive are the calls of the source. The calls are words filed in the database; no cut-off is given here.
measure: GC50

Illustrative cases are given below, each with its answer.
O=[N+]([O-])c1cc(-c2nc(-c3ccccn3)no2)cs1	inactive
Cc1ccc(/C=C2\C(=O)NC(=O)N(c3ccc(Cl)cc3)C2=O)s1	5 µM
COc1ccc(-c2cc3nnc(-c4ccccc4)nc3s2)cc1	inactive
Cc1ccc(S(=O)(=O)NC2=NC(=O)/C(=C\c3ccccc3)S2)cc1	15 µM

The record that follows has no GC50 shown yet.
Reported GC50 of `O=c1/c(=C/c2ccccc2[N+](=O)[O-])sc2nc(-c3ccc(F)cc3)nn12` : 15 µM
